experiment: Aqueous solubility; assay type: physicochemical; settings: read-out: concentration at which solubility becomes a limiting issue

Molecular String: OC[C@H]1O[C@@H]2O[C@H]3[C@H](O)[C@@H](O)[C@@H](O[C@H]4[C@H](O)[C@@H](O)[C@@H](O[C@H]5[C@H](O)[C@@H](O)[C@@H](O[C@H]6[C@H](O)[C@@H](O)[C@@H](O[C@H]7[C@H](O)[C@@H](O)[C@@H](O[C@H]8[C@H](O)[C@@H](O)[C@@H](O[C@H]1[C@H](O)[C@H]2O)O[C@@H]8CO)O[C@@H]7CO)O[C@@H]6CO)O[C@@H]5CO)O[C@@H]4CO)O[C@@H]3CO
solubility: > 8000 µg/mL

====

experiment: In vitro anti-HCV assay in HCV RNA-replicating cell line AVA5; type: cell-based; details: human, AVA5 cells (HCV RNA-replicating Huh7 line); toxicity control, no antiviral activity; read-out: approximate CC90

Molecule: NC(=O)c1ncn([C@@H]2O[C@H](CO)[C@@H](O)[C@H]2O)n1 [ribavirin, reference compound]
CC90 at 3 days: ~100 µM
